Hi there, I'd appreciate the recorded IC50 for every entry that follows.
Test system: H358. non-small cell lung cancer line bearing KRas^G12C oncogenic mutation
Assay: Antiproliferative MTS assay, H358 cells
Format: cell-based
Conditions: Homo sapiens, NCI-H358, 72 h, compounds 1-23, 47-52 and Reference Example 1 median of experiments, 24-46 estimations and/or preliminary results, read-out: IC50 values: cell proliferation inhibition, H358
Give bare numbers, in nM.

Check out these entries, answers already filled in.
| compound | IC50 (nM) |
| --- | --- |
| COc1ccc(CCOc2cc3c(cc2OC)CCN(C(=O)NCC(F)(F)F)C3c2ccc(Cl)cc2C)cc1N (stereo not drawn) | 300 |
| COc1ccc(C2c3cc(OCCc4ccc(N)c(OC)c4)c(OC)cc3CCN2C(=O)NCc2cocn2)c(C)c1 (stereo not drawn) | 400 |
| COc1cc(CCOc2cc3c(cc2OC)CCN(C(=O)NCC(F)(F)F)C3c2ccc(F)cc2C)ccc1N (stereo not drawn) | 500 |

Answer for every listed entry: what is its IC50? The entries follow.
1. COc1cc(CCOc2cc3c(cc2OC)CCN(C(=O)NCc2cocn2)C3c2ccc(C(F)(F)F)cc2C)ccc1N (stereo not drawn)
2. COc1ccc(C2c3cc(OCCc4ccc(N)c(OC)c4)c(OC)cc3CCN2C(=O)NCc2ccon2)c(C)c1 (stereo not drawn)
3. CCNC(=O)N1CCc2cc(OC)c(OCCc3ccc(OC)c(N)c3)cc2C1c1ccc(N(C)C)cc1C (stereo not drawn)

1. 500
2. 300
3. 1000

Answer for every listed entry: what is its IC50? The entries follow.
1. CCNC(=O)N1CCc2cc(OC)c(OCCc3ccc(N)c(OC)c3)cc2C1c1ccc(F)cc1C (stereo not drawn)
2. COc1cc(CCOc2cc3c(cc2OC)CCN(C(=O)NCc2ccon2)C3c2ccc(C(F)(F)F)cc2C)ccc1N (stereo not drawn)

1: 500; 2: 600
